test system: RXRa DBDmut IVT, anti-RXR (DBD mutation: RXRa K156A/R161A, NR concentration 90 nM); test: PBM binding z-score (relative to random genomic background probes); higher = stronger binding; sequences stand for … in GC…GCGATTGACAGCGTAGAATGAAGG
Quick rule: PBM binding z-score of at least 1 means 1, below that means -1.

Solved entries (count: 10):
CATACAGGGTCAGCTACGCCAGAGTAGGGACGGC: 1
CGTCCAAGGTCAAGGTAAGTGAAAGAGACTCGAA: 1
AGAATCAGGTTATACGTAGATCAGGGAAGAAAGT: -1
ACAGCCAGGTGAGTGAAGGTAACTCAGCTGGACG: -1
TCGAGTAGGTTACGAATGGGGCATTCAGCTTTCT: -1
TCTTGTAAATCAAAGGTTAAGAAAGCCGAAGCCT: -1
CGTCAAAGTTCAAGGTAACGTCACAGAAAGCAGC: 1
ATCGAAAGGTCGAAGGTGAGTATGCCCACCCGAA: 1
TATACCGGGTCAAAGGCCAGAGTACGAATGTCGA: 1
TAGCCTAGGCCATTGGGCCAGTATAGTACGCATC: -1

Task: Has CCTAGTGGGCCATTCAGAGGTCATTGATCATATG a recorded PBM binding z-score greater than or equal to 1?
Result: -1

Task: Has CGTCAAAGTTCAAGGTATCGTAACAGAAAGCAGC a recorded PBM binding z-score greater than or equal to 1?
Result: 1

Task: Has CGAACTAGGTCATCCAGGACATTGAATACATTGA a recorded PBM binding z-score greater than or equal to 1?
Result: 1

Task: Has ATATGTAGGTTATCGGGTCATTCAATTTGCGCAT a recorded PBM binding z-score greater than or equal to 1?
Result: 1

Task: Has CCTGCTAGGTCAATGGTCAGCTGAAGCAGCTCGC a recorded PBM binding z-score greater than or equal to 1?
Result: 1

Task: Has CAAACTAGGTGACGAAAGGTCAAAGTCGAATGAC a recorded PBM binding z-score greater than or equal to 1?
Result: 1

Task: Has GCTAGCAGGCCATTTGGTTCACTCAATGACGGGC a recorded PBM binding z-score greater than or equal to 1?
Result: -1

Task: Has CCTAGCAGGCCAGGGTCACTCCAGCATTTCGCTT a recorded PBM binding z-score greater than or equal to 1?
Result: -1

Task: Has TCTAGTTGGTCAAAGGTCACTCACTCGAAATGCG a recorded PBM binding z-score greater than or equal to 1?
Result: 1

Task: Has GCTTGTTGGTCAGTAAAAGGTCACACACCGGTCG a recorded PBM binding z-score greater than or equal to 1?
Result: -1

Task: Has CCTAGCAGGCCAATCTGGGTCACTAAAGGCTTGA a recorded PBM binding z-score greater than or equal to 1?
Result: -1

* * *

test system: FXR:RXRa (NR concentration 270 nM, RXRa partner concentration 90 nM); experiment: PBM binding z-score (relative to random genomic background probes); higher = stronger binding; sequences stand for … in GC…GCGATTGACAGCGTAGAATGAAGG
Our labelling divides records by PBM binding z-score into ranges: category 1: < 0.5; category 2: ≥ 0.5 and < 2; category 3: ≥ 2

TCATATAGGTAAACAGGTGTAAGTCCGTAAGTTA: category 2
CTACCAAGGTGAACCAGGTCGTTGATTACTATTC: category 2
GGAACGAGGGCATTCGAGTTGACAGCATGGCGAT: category 2
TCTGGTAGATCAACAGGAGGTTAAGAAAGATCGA: category 1
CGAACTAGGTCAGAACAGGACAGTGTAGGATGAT: category 2

Task: Dear colleague, I would appreciate it if you could identify the bin for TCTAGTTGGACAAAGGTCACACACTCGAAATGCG and reply at your convenience.
Result: category 3

Task: Dear colleague, I would appreciate it if you could identify the bin for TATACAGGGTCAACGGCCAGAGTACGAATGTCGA and reply at your convenience.
Result: category 3

Task: Dear colleague, I would appreciate it if you could identify the bin for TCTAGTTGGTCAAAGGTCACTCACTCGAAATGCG and reply at your convenience.
Result: category 3

Task: Dear colleague, I would appreciate it if you could identify the bin for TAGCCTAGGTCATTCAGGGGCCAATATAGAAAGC and reply at your convenience.
Result: category 3

Task: Dear colleague, I would appreciate it if you could identify the bin for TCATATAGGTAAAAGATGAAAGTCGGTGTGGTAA and reply at your convenience.
Result: category 2

Task: Dear colleague, I would appreciate it if you could identify the bin for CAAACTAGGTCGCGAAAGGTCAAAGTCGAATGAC and reply at your convenience.
Result: category 3

Task: Dear colleague, I would appreciate it if you could identify the bin for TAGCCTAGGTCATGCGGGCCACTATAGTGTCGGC and reply at your convenience.
Result: category 3

Task: Dear colleague, I would appreciate it if you could identify the bin for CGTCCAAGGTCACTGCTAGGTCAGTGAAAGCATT and reply at your convenience.
Result: category 3

Task: Dear colleague, I would appreciate it if you could identify the bin for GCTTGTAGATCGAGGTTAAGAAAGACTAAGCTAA and reply at your convenience.
Result: category 1

Task: Dear colleague, I would appreciate it if you could identify the bin for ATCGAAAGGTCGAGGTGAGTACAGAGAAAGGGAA and reply at your convenience.
Result: category 3

Task: Dear colleague, I would appreciate it if you could identify the bin for TCGAGTAGGTTTCCAATGGGGCATTCAGCTTTCT and reply at your convenience.
Result: category 1

Task: Dear colleague, I would appreciate it if you could identify the bin for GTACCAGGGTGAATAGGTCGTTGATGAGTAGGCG and reply at your convenience.
Result: category 2

Task: Dear colleague, I would appreciate it if you could identify the bin for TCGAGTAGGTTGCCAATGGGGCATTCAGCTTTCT and reply at your convenience.
Result: category 1

Task: Dear colleague, I would appreciate it if you could identify the bin for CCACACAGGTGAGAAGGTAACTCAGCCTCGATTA and reply at your convenience.
Result: category 1

Task: Dear colleague, I would appreciate it if you could identify the bin for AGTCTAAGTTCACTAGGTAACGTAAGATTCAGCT and reply at your convenience.
Result: category 3

Task: Dear colleague, I would appreciate it if you could identify the bin for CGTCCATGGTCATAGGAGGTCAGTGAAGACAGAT and reply at your convenience.
Result: category 2

* * *

Each record here notes measured PBM binding z-score.
system: RARa homodimer (NR concentration 270 nM); experiment: PBM binding z-score (relative to random genomic background probes); higher = stronger binding; sequences stand for … in GC…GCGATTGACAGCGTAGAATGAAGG
Give a plain numeric answer without units written out.

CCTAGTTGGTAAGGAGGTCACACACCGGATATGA: 1.52
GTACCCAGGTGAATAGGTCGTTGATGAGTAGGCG: 0.238

Attention now turns to another entry.
Task: For the sequence shown here, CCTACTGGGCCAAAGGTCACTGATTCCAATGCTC , give the reported PBM binding z-score.
Result: 1.82

* * *

Each record here notes measured PBM binding z-score.
test system: RARb:RXRa (NR concentration 270 nM, RXRa partner concentration 90 nM); assay: PBM binding z-score (relative to random genomic background probes); higher = stronger binding; sequences stand for … in GC…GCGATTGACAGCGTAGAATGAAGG
Give a plain numeric answer without units written out.

// worked examples, PBM binding z-score included
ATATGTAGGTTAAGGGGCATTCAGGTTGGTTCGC: 1.78
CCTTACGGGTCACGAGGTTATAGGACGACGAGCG: 4.56

Task: For the sequence shown here, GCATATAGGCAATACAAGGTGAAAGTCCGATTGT , give the reported PBM binding z-score.
Result: 0.172

Task: For the sequence shown here, ATCTTTAGGTAAAGTTCAGTGAAAGATCGATAGA , give the reported PBM binding z-score.
Result: 2.65

* * *

Each record here notes measured PBM binding z-score.
system: LXRa:RXRa (NR concentration 270 nM, RXRa partner concentration 90 nM); test: PBM binding z-score (relative to random genomic background probes); higher = stronger binding; sequences stand for … in GC…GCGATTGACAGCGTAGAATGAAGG
Give a plain numeric answer without units written out.

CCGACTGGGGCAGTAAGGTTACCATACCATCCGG: -0.0103

Task: For the sequence shown here, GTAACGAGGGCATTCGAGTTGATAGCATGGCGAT , give the reported PBM binding z-score.
Result: 1.91

Task: For the sequence shown here, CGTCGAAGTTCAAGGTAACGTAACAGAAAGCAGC , give the reported PBM binding z-score.
Result: 2.34

Task: For the sequence shown here, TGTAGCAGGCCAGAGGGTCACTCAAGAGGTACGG , give the reported PBM binding z-score.
Result: 0.677

Task: For the sequence shown here, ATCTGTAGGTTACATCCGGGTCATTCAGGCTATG , give the reported PBM binding z-score.
Result: 4.67

Task: For the sequence shown here, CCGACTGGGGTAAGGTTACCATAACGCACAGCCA , give the reported PBM binding z-score.
Result: 1.11
